biological target: SARS-COV-2 3CLpro/Mpro protease (Severe acute respiratory syndrome coronavirus 2 (2019-nCoV) (SARS-CoV-2), UniProt P0DTD1); test: Inhibitory effect on SARS-COV-2 3CLpro/Mpro protease by fluorescence resonance energy transfer; type: biochemical; settings: activity intervals A-D, read-out: IC50 (nM), Inhibition on SARS-CoV-2 3CLpro/Mpro protease
test readout: IC50

Example cases with answers are listed next.
O=C(c1cc(Br)[nH]c(=O)c1)N1CCC[C@@H](Nc2c(C(=O)N3CCC(F)(F)CC3)cc(Br)cc2[N+](=O)[O-])C1    50 to 100 nM
CO[C@H]1CN(C(=O)c2cncc3[nH]ccc23)C[C@@H]1Nc1c(C(=O)N2C[C@@H](C)O[C@@H](C)C2)cc(Br)cc1[N+](=O)[O-]    10 to 50 nM
CNc1cncc(C(=O)N2C[C@H](Nc3c(C(=O)N4C[C@@H](C)O[C@@H](C)C4)cc(Br)cc3[N+](=O)[O-])[C@@H](OCc3ccccc3)C2)c1    10 to 50 nM
O=C(c1cc(Br)cc([N+](=O)[O-])c1N[C@@H]1CCCN(C(=O)C2CNCC(F)(F)C2)C1)N1CCCC(F)(F)C1 (stereo in doubt)    10 to 50 nM
CNc1cncc(C(=O)N2C[C@H](Nc3c(C(=O)N4C[C@@H](C)O[C@@H](C)C4)cc(Br)cc3[N+](=O)[O-])[C@@H](OCCOC)C2)c1    10 to 50 nM
CNc1cncc(C(=O)N2C[C@H](Nc3c(C(=O)N4C[C@@H](C)O[C@@H](C)C4)cc(Br)cc3[N+](=O)[O-])C[C@H]2C(=O)NCc2ccnc(C(F)(F)F)n2)c1    10 to 50 nM
C#C[C@@H]1C[C@@H](Nc2c(C(=O)N3C[C@@H](C)O[C@@H](C)C3)cc(Br)cc2[N+](=O)[O-])CN1C(=O)c1cncc(NC)c1    50 to 100 nM
COCCN1CCN(C(=O)c2cc(Br)cc([N+](=O)[O-])c2N[C@@H]2CCCN(C(=O)[C@H]3CNCC(F)(F)C3)C2)CC1    10 to 50 nM

Which IC50 is listed for CNc1cncc(C(=O)N2C[C@H](Nc3c(C(=O)N4CCOC(F)(F)C4)cc(Br)cc3[N+](=O)[O-])[C@@H](OC)C2)c1 ?
10 to 50 nM

Quick check: IC50 of C[C@@H]1CN(C(=O)c2cc(Br)cc([N+](=O)[O-])c2N[C@@H]2COCC[C@@H]2NC(=O)c2cncc3ccccc23)C[C@H](C)O1 ?
10 to 50 nM
